- target.or.test.system: FAD-linked sulfhydryl oxidase ALR (Homo sapiens)
- method.summary: ALR-catalysed DTT oxidation blockers – biochemical, H2O2 detection, HRP-luminol luminescence, single point, primary screen (AID 485317)
- assay.conditions: purified ALR, concentration not given here
The campaign covered roughly 290,000 compounds. About 11,000 (3.8%) were called active.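 The calls were made as follows: active = mean replicate inhibition above about 79%, with every replicate also reaching it (limit read from the data); inconclusive = only one of the two criteria met; inactive = mean below limit and not every replicate reaching it.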 Many of the other results were omitted from the sample, so actives are more common in it than they were.
Outcome codes: class 1 = active, class 0 = inactive

{"molecule": "CC(=O)C1=C(O)C(=O)N(c2ccc(S(N)(=O)=O)cc2)C1c1ccccc1F (stereo not given)", "target.or.test.system": "FAD-linked sulfhydryl oxidase ALR (Homo sapiens)", "category.label": "class 0"}
{"molecule": "Cc1ccc(NNC(=O)c2c(F)cccc2Cl)cc1Cl", "target.or.test.system": "FAD-linked sulfhydryl oxidase ALR (Homo sapiens)", "category.label": "class 1"}
{"molecule": "Cc1cc(NC(=O)COc2ccc([N+](=O)[O-])cc2)no1", "target.or.test.system": "FAD-linked sulfhydryl oxidase ALR (Homo sapiens)", "category.label": "class 0"}
{"molecule": "NS(=O)(=O)c1ccc(CCNC(=O)CN2C(=O)c3ccccc3S2(=O)=O)cc1", "target.or.test.system": "FAD-linked sulfhydryl oxidase ALR (Homo sapiens)", "category.label": "class 0"}
{"molecule": "O=C(CN1C(=O)C2C3CCC(C3)C2C1=O)Oc1ccc2ccccc2c1 (stereo not given)", "target.or.test.system": "FAD-linked sulfhydryl oxidase ALR (Homo sapiens)", "category.label": "class 0"}
{"molecule": "CC1=CC(C)(C)Nc2ccc(OC(=O)C(Cc3ccccc3)N3C(=O)C4CCCCC4C3=O)cc21 (stereo not given)", "target.or.test.system": "FAD-linked sulfhydryl oxidase ALR (Homo sapiens)", "category.label": "class 0"}
{"molecule": "CCOC(=O)CSc1nc(C)c(Oc2ccc(Cl)cc2Cl)c(=O)[nH]1", "target.or.test.system": "FAD-linked sulfhydryl oxidase ALR (Homo sapiens)", "category.label": "class 0"}
{"molecule": "COc1ccc(NC(=O)CSc2nnc(-c3cccs3)n2Cc2ccco2)cc1OC", "target.or.test.system": "FAD-linked sulfhydryl oxidase ALR (Homo sapiens)", "category.label": "class 0"}
{"molecule": "COc1ccc(Oc2cn[nH]c2-c2ccc(OC)cc2O)cc1", "target.or.test.system": "FAD-linked sulfhydryl oxidase ALR (Homo sapiens)", "category.label": "class 1"}
{"molecule": "COc1ccc(/C(C)=N/NC(=O)c2ccc3nc[nH]c3c2)cc1", "target.or.test.system": "FAD-linked sulfhydryl oxidase ALR (Homo sapiens)", "category.label": "class 0"}
{"molecule": "O=C(COC(=O)c1ccc(Br)o1)NC12CC3CC(CC(C3)C1)C2", "target.or.test.system": "FAD-linked sulfhydryl oxidase ALR (Homo sapiens)", "category.label": "class 0"}
{"molecule": "COc1cc(N=Cc2c(O)c3ccccc3oc2=O)c(OC)cc1Cl", "target.or.test.system": "FAD-linked sulfhydryl oxidase ALR (Homo sapiens)", "category.label": "class 0"}
{"molecule": "Cc1ccc(NNC(=O)c2cccs2)cc1Cl", "target.or.test.system": "FAD-linked sulfhydryl oxidase ALR (Homo sapiens)", "category.label": "class 0"}
{"molecule": "CC(=O)Nc1ccc(SC[C@H](Cc2ccccc2)N2CC[C@@H](C)CCC2=O)cc1", "target.or.test.system": "FAD-linked sulfhydryl oxidase ALR (Homo sapiens)", "category.label": "class 1"}
{"molecule": "O=C1CC[C@H](O)CCN1[C@H](CSc1ccc(Br)cc1)Cc1ccccc1", "target.or.test.system": "FAD-linked sulfhydryl oxidase ALR (Homo sapiens)", "category.label": "class 0"}

====

- target.or.test.system: FAD-linked sulfhydryl oxidase ALR (Homo sapiens)
- method.summary: ALR-catalysed DTT oxidation blockers – biochemical, H2O2 detection, HRP-luminol luminescence, single point, primary screen (AID 485317)
- assay.conditions: purified ALR, active compounds read high, concentration not given here
Among all 290,000 compounds or so, about 11,000 (3.8%) were called active. The sample holds actives, similar compounds and a random draw of the others, so the mix is not that of the screen.
Listing: inhibition of selected compounds

{"compound": "Cc1ccc(C(=O)NCCNC(=O)c2ccccc2)cc1", "target.or.test.system": "FAD-linked sulfhydryl oxidase ALR (Homo sapiens)", "inhibition [%]": -3.69}
{"compound": "Cc1ccc(SC(CC(=O)c2ccc(C(C)(C)C)cc2)C(=O)O)cc1 (centres undefined)", "target.or.test.system": "FAD-linked sulfhydryl oxidase ALR (Homo sapiens)", "inhibition [%]": 97.7}
{"compound": "CCCn1c(CCNc2nc(-c3ccc(OC)cc3)cs2)nc2ccccc21", "target.or.test.system": "FAD-linked sulfhydryl oxidase ALR (Homo sapiens)", "inhibition [%]": 12.7}
{"compound": "O=C(NCc1ccc2c(c1)OCO2)c1c(-c2ccsc2)sc2ccccc12", "target.or.test.system": "FAD-linked sulfhydryl oxidase ALR (Homo sapiens)", "inhibition [%]": 3.11}
{"compound": "Cc1ccc(C(=O)CNc2ccc(F)cc2)cc1", "target.or.test.system": "FAD-linked sulfhydryl oxidase ALR (Homo sapiens)", "inhibition [%]": -18.2}
{"compound": "Cc1ccc(N2C(=O)N3[C@@H]4c5ccccc5OC[C@@H]4[C@@H](c4ccccc4)[C@@]3(C)C2=O)cc1", "target.or.test.system": "FAD-linked sulfhydryl oxidase ALR (Homo sapiens)", "inhibition [%]": 3}
{"compound": "CCOc1ccc(CCNC(=O)C2=C(C)C(=O)OC23CCC(C)CC3)cc1OCC (centres undefined)", "target.or.test.system": "FAD-linked sulfhydryl oxidase ALR (Homo sapiens)", "inhibition [%]": -1.93}
{"compound": "CN1CCN(S(=O)(=O)c2ccc(Nc3ccc(F)cc3)nc2)CC1", "target.or.test.system": "FAD-linked sulfhydryl oxidase ALR (Homo sapiens)", "inhibition [%]": -2.65}
{"compound": "CCc1cc(-c2n[nH]c(=S)n2CC(C)C)cs1", "target.or.test.system": "FAD-linked sulfhydryl oxidase ALR (Homo sapiens)", "inhibition [%]": 94.7}
{"compound": "Cc1cccc(NC(=O)CN2C(=O)CNC2=O)c1", "target.or.test.system": "FAD-linked sulfhydryl oxidase ALR (Homo sapiens)", "inhibition [%]": -1.19}
{"compound": "CC(OC(=O)CN1C(=O)c2ccccc2C1=O)C(=O)c1ccccc1 (centres undefined)", "target.or.test.system": "FAD-linked sulfhydryl oxidase ALR (Homo sapiens)", "inhibition [%]": 4.65}
{"compound": "C=C1c2cc(CC)ccc2NC(=O)N1c1ccc(C)cc1", "target.or.test.system": "FAD-linked sulfhydryl oxidase ALR (Homo sapiens)", "inhibition [%]": 96.2}
{"compound": "CCCc1cc(=O)[nH]c(SCC(=O)c2c(N)n(CC(C)C)c(=O)n(C)c2=O)n1", "target.or.test.system": "FAD-linked sulfhydryl oxidase ALR (Homo sapiens)", "inhibition [%]": -1.46}
{"compound": "CCOc1ncccc1C(=O)OCC(=O)c1c[nH]c2ccccc12", "target.or.test.system": "FAD-linked sulfhydryl oxidase ALR (Homo sapiens)", "inhibition [%]": 16.6}
{"compound": "CCn1c(-c2ccncc2)n[nH]c1=S", "target.or.test.system": "FAD-linked sulfhydryl oxidase ALR (Homo sapiens)", "inhibition [%]": 65.5}
{"compound": "Cc1ccc(OCc2cc(C(=O)N(C)CCn3ccnc3C)no2)cc1C", "target.or.test.system": "FAD-linked sulfhydryl oxidase ALR (Homo sapiens)", "inhibition [%]": -0.532}
{"compound": "Cc1noc(C)c1NC(=O)Nc1cccc2c1O[C@H](CN(C)C(=O)Nc1ccccc1)[C@@H](C)CN([C@H](C)CO)C2=O", "target.or.test.system": "FAD-linked sulfhydryl oxidase ALR (Homo sapiens)", "inhibition [%]": 1.38}
{"compound": "Cc1ccc(N2C(=O)C(Cc3ccccc3)NC2=S)cc1 (centres undefined)", "target.or.test.system": "FAD-linked sulfhydryl oxidase ALR (Homo sapiens)", "inhibition [%]": 25.5}
{"compound": "COCC(=O)Nc1ccc(Br)cc1", "target.or.test.system": "FAD-linked sulfhydryl oxidase ALR (Homo sapiens)", "inhibition [%]": -12.4}

====

- target.or.test.system: FAD-linked sulfhydryl oxidase ALR (Homo sapiens) (UniProt P55789)
- Sequence (P55789 whole entry, looked up): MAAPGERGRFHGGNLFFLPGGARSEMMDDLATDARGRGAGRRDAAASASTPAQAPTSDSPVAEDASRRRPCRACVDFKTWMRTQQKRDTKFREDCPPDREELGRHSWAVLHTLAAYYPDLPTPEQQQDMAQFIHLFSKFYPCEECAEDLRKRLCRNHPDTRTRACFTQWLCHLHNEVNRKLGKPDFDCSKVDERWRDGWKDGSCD
- method.summary: ALR-catalysed DTT oxidation blockers – biochemical, H2O2 detection, HRP-luminol luminescence, single point, primary screen (AID 485317)
- assay.conditions: purified ALR, active compounds read high, concentration not given here
Hit rate of the full screen: of about 290,000 compounds, about 11,000 (3.8%) were called active. This is one part of a sample in which actives are shown more often than they occur.
Listing: inhibition of selected compounds

{"compound": "COc1ccc(NS(=O)(=O)c2ccc(NC(C)=O)cc2)cc1OC", "unit.spec": "%", "inhibition": -18.8}
{"compound": "COc1cccc(C2=CC(=O)C[C@H](c3ccc(OC)c(OC)c3)C2)c1", "unit.spec": "%", "inhibition": -2.35}
{"compound": "COc1ccc(/C=C/C(=O)c2ccc(NS(=O)(=O)c3ccc(C)cc3)cc2)cc1O", "unit.spec": "%", "inhibition": 82.9}
{"compound": "COc1ccc2ccn(C)c2c1", "unit.spec": "%", "inhibition": 7.82}
{"compound": "CCC(CO)Oc1cc(NC(=O)c2cccc(F)c2)c2ncn(C(C)C)c2c1 (stereo not drawn)", "unit.spec": "%", "inhibition": -32.8}
{"compound": "Cc1oc2c(C)c3oc(=O)c(CC(=O)N[C@@H](CC(C)C)C(=O)N[C@@H](Cc4ccccc4)C(=O)O)c(C)c3cc2c1C", "unit.spec": "%", "inhibition": 40.1}
{"compound": "COc1ccc2c(c1)cc1n2CCN=C1NN", "unit.spec": "%", "inhibition": 97.6}
{"compound": "Cc1cc(=O)oc2c(C)c(OC(C)C(=O)NC3CCN(Cc4ccccc4)CC3)ccc12 (stereo not drawn)", "unit.spec": "%", "inhibition": 2.88}
